Can you tell me Emax for the items I'm about to list?
ASSAYED TARGET: sGC α1/β1 heterodimer (Homo sapiens, UniProt Q02108+Q02153)
Construct: expressed in transfected cells; host or cells: CHO-K1 (clone #7, CHO-K1/sGC)
ASSAY PROTOCOL: Cell-based sGC functional assay (CASA assay): cGMP generation in CHO-K1/sGC cells, HTRF detection
RUN PARAMETERS: CHO-K1, percent activation relative to standard Compound A in CHO-K1/sGC cells; read-out: % Act.
Answers are plain numbers, in %.

Answered cases to consult:
Nc1nc(-c2cn3cc(C(F)(F)F)nc3c(Cc3cccc(F)c3F)n2)nc2c1C(C(=O)NC1CC1)(C1CC1)C(=O)N2 (stereo not shown) [Example 48B]: 93
Nc1nc(-c2cn3ccnc3c(CCC(F)(F)F)n2)nc2c1C(c1ccc(Cl)c(F)c1)(C1CC1)C(=O)N2 (stereo not shown) [Example 190A]: 90
CC1(c2ccc(F)cc2)C(=O)Nc2nc(-c3cn4c(N)cnc4c(CCC(F)(F)C(F)(F)F)n3)nc(N)c21 (stereo not shown) [Example 267A]: 91
CC1(c2ccc(Cl)cc2)C(=O)Nc2nc(-c3cn4ccnc4cn3)nc(NCCC(F)(F)F)c21 (stereo not shown) [Example 289A]: 106
CN(C)c1nc(-c2cn3ccnc3cn2)nc2c1C(C)(c1ccc(Cl)cc1)C(=O)N2 (stereo not shown) [Example 312A]: 93

Would you mind listing Emax for each of the following molecules?
1. CCCCc1nc(-c2nc(N)c3c(n2)NC(=O)C3(C)c2ccc(Cl)cn2)cn2c(C)cnc12 (stereo not shown) [Example 169A]
2. Nc1nc(-c2cn3ccnc3c(CCC(F)(F)C(F)(F)F)n2)nc2c1C(c1nnc(C3CC3)s1)(C1CC1)C(=O)N2 (stereo not shown) [Example 54A]

Data returned:
1: 75; 2: 91

###

ASSAYED TARGET: sGC α1/β1 heterodimer (Homo sapiens, UniProt Q02108+Q02153)
ASSAY PROTOCOL: Cell-based sGC functional assay (CASA assay): cGMP generation in CHO-K1/sGC cells, HTRF detection
RUN PARAMETERS: inflection point (IP) of cGMP generation in CHO-K1/sGC cells, 4P fit; activity expressed as percentage of Compound A
Exercise: state measured pEC50 for each of the compounds provided.
Answers are plain numbers, as −log10 of the molar value.

Examples with answers:
CC1(c2ccc(F)cc2)C(=O)Nc2nc(-c3cn4ccnc4c(Cc4ccccc4F)n3)nc(N)c21 (stereo not shown) [Example 89A]: 8.40
CC1(C)C(=O)Nc2nc(-c3cn4cc(C(F)(F)F)nc4c(Cc4cccc(F)c4)n3)nc(N)c21: 6.06
CCC1(c2ccc(F)cn2)C(=O)Nc2nc(-c3cn4ccnc4c(CCC(F)(F)C(F)(F)F)n3)nc(N)c21 (stereo not shown) [Example 249A]: 6.12
Nc1nc(-c2cn3ccnc3c(CCC(F)(F)F)n2)nc2c1C(c1ccc(C(F)(F)F)cn1)(C1CC1)C(=O)N2 (stereo not shown) [Example 340A]: 6.09
CCCc1nc(-c2nc(N)c3c(n2)NC(=O)C3(c2ccc(Cl)c(F)c2)C2CC2)cn2ccnc12 (stereo not shown) [Example 327A]: 6.87
Nc1nc(-c2cn3cc(C(F)(F)F)nc3c(Cc3cccc(F)c3F)n2)nc2c1C(C(=O)NC1CC1)(C1CC1)C(=O)N2 (stereo not shown) [Example 48B]: 6.35

Query compound follows.
Data request: What value of measured pEC50 is listed for CCCc1nc(-c2nc(N)c3c(n2)NC(=O)C3(c2ccc(Cl)cc2)C2CC2)cn2ccnc12 (stereo not shown) [Example 26B] ?
Data returned: 6.60

###

ASSAYED TARGET: sGC α1/β1 heterodimer (Homo sapiens, UniProt Q02108+Q02153)
ASSAY PROTOCOL: Cell-based sGC functional assay (CASA assay): cGMP generation in CHO-K1/sGC cells, HTRF detection
RUN PARAMETERS: inflection point (IP) of cGMP generation in CHO-K1/sGC cells, 4P fit; activity expressed as percentage of Compound A
Please respond with reported pEC50 for every item in the list.
Numbers only, as −log10 of the molar value.

Some solved cases for reference:
CC1(c2ccc(Cl)cc2)C(=O)Nc2nc(-c3cn4ccnc4cn3)nc(N3CCC(C(F)(F)F)CC3)c21 (centres unmarked) [Example 280A]: 6.91
Nc1nc(-c2cn3ccnc3c(Cc3cccc(F)c3)n2)nc2c1C(C(=O)NC1CC1)(C1CC1)C(=O)N2 (single isomer, unassigned) [Example 38A]: 7.21
CC1(c2ccc(F)cn2)C(=O)Nc2nc(-c3cn4ccnc4c(C4CCC4)n3)nc(N)c21 (centres unmarked) [Example 27B]: 6.36
CCCCc1nc(-c2nc(N)c3c(n2)NC(=O)C3(C)c2ccc(C(F)(F)F)cn2)cn2cc(C)nc12 (centres unmarked) [Example 166B]: 6.92

Quick batch: pEC50 for everything below.
1. Nc1nc(-c2cn3ccnc3c(CCCC(F)(F)F)n2)nc2c1C(c1ncc(C(F)(F)F)cc1Cl)(C1CC1)C(=O)N2 (single isomer, unassigned) [Example 370B]
2. Nc1nc(-c2cn3ccnc3c(CCCC(F)(F)F)n2)nc2c1C(c1ccc(Cl)cc1)(C1CC1)C(=O)N2 (centres unmarked) [Example 316B]
3. Cc1nc(C2(C3CC3)C(=O)Nc3nc(-c4cn5ccnc5c(CCCC(F)(F)F)n4)nc(N)c32)ccc1Cl (single isomer, unassigned) [Example 377B]
4. Cc1ccc(C2(C)C(=O)Nc3nc(-c4cn5ccnc5c(CCC(F)(F)C(F)(F)F)n4)nc(N)c32)nn1 (centres unmarked) [Example 252B]

Data returned:
6.58
7.54
7.07
6.76

###

ASSAYED TARGET: sGC α1/β1 heterodimer (Homo sapiens, UniProt Q02108+Q02153)
Construct: expressed in transfected cells; host or cells: CHO-K1 (clone #7, CHO-K1/sGC)
Sequence (Q02108 1-690): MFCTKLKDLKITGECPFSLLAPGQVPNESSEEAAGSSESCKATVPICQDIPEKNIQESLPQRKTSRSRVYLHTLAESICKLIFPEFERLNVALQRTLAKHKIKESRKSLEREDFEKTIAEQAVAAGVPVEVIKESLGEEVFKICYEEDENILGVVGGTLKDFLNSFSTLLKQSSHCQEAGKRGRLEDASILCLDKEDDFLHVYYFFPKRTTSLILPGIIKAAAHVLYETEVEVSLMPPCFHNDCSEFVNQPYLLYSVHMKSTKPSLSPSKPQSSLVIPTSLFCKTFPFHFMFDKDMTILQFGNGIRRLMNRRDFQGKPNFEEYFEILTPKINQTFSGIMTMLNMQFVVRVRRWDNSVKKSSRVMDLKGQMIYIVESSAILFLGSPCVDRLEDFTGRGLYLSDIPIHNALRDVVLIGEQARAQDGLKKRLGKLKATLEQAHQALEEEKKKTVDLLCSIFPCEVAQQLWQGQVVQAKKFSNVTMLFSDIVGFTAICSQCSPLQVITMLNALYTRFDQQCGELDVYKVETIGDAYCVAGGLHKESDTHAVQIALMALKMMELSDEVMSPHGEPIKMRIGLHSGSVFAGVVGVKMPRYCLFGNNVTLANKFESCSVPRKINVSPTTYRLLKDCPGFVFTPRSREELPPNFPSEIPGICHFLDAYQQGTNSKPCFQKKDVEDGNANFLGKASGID
Sequence (Q02153 1-619): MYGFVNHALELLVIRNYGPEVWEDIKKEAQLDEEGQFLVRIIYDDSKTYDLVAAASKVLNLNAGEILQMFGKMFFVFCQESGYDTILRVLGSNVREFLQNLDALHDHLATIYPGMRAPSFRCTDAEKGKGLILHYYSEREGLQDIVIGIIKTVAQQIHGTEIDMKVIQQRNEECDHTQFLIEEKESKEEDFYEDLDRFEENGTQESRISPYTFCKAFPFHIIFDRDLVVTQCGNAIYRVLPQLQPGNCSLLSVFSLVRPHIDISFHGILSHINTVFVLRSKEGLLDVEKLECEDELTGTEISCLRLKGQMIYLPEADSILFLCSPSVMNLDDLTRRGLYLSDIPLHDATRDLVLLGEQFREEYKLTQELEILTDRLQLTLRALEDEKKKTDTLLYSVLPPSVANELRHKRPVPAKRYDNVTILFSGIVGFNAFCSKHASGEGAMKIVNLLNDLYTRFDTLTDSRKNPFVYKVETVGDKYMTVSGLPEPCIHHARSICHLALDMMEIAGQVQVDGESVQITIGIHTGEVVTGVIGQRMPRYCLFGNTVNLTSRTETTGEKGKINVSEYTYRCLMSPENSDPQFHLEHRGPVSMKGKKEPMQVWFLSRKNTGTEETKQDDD
ASSAY PROTOCOL: Cell-based sGC functional assay (CASA assay): cGMP generation in CHO-K1/sGC cells, HTRF detection
RUN PARAMETERS: CHO-K1, percent activation relative to standard Compound A in CHO-K1/sGC cells; read-out: % Act.
QUANTITY: Emax (%)
Answers are plain numbers, in %.

CC1(C)C(=O)Nc2nc(-c3cn4ccnc4c(Cc4ccc(F)c(F)c4)n3)nc(N)c21 [Example 73]: 111

Each molecule below has a reported value. Please supply its Emax.
1. CC1(c2ccc(Cl)c(Cl)c2)C(=O)Nc2nc(-c3cn4ccnc4cn3)nc(N)c21 (stereo not shown) [Example 138A]
2. CC1(c2ccc(F)cc2)C(=O)Nc2nc(-c3cn4c(Cc5ccccc5)cnc4c(CCC(F)(F)C(F)(F)F)n3)nc(N)c21 (stereo not shown) [Example 260A]
3. CC1(C)C(=O)Nc2nc(-c3cn4c(Cl)cnc4c(CCC(F)(F)C(F)(F)F)n3)nc(N)c21 [Example 257]
4. CC(C)c1nnc(C2(C3CC3)C(=O)Nc3nc(-c4cn5ccnc5c(CCC(F)(F)C(F)(F)F)n4)nc(N)c32)s1 (stereo not shown) [Example 55A]
5. CC1(c2ccc(F)cc2)C(=O)Nc2nc(-c3cn4c(C#N)cnc4c(CCC(F)(F)C(F)(F)F)n3)nc(N)c21 (stereo not shown) [Example 273A]
6. CC1(c2ccc(F)cc2)C(=O)Nc2nc(-c3cn4ccnc4c(CCC(F)(F)C(F)(F)F)n3)nc(N)c21 (single isomer, unassigned) [Example 222B]

Data returned:
1: 151; 2: 90; 3: 146; 4: 93; 5: 81; 6: 121

Data credit: patent US9796733B2
